system: Caco-2; experiment: cell viability relative to DMSO; higher = less toxic; details: 72 h; 1 nM

Line Notation	Target Under Test	cell viability / %
CC/C(=C(/c1ccc(/C=C/C(=O)O)cc1)c1ccc2[nH]ncc2c1)c1ccc(F)cc1Cl	Caco-2	102
C[C@H]1C[C@H]2[C@@H]3CCC4=CC(=O)C=C[C@]4(C)[C@H]3C(=O)C[C@]2(C)[C@@]1(O)C(=O)CO	Caco-2	86.1
Nc1nc(NCCNc2ncc(-n3ccnc3)c(-c3ccc(Cl)cc3Cl)n2)ccc1[N+](=O)[O-]	Caco-2	96.7
Nc1nc(OCc2cc(Br)cs2)c2[nH]cnc2n1	Caco-2	96.9
Cc1cc(Nc2ncc(Cl)c(Nc3ccccc3S(=O)(=O)C(C)C)n2)c(OC(C)C)cc1C1CCNCC1	Caco-2	99.3
C/C(=C\CNc1ncnc2[nH]cnc12)CO	Caco-2	94.1

Reference source for all entries: the supplement of paper PMC13380429
